Biological target: T1, recombinant human regenerating islet-derived protein 1α (REG1A) (human, UniProt P05451 23-166, limits assumed)
T1 construct: also called recombinant human REG1A; recombinant REG1A
T1 sequence (looked up): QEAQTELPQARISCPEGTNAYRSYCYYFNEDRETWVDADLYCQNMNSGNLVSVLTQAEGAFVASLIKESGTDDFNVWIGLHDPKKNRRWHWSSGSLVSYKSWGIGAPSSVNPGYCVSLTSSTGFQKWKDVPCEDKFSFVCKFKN
Experiment: sandwich ELISA; capture 4H8F1; REG1A 1.23 ng/mL
Test readout: OD value (OD)
Number in OD, nothing else.

Below: 3 binders and their reported OD value.
- Binder: "antibody 11D11B11 (antibody, mouse IgG2a, kappa, V domains shown, Mouse monoclonal from hybridoma, stated mouse IgG1/Kappa; Used unlabelled as capture and biotin-labelled as detection antibody; also called 11D11B11-biotin) VH: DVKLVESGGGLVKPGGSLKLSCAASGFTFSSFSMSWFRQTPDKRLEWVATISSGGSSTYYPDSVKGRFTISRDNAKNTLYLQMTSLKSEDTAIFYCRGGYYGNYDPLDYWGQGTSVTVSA VL: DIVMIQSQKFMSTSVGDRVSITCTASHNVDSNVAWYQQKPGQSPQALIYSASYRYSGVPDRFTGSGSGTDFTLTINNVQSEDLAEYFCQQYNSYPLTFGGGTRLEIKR"
  OD value / OD: 2.46
- Binder: "antibody 4H8F1 (antibody, V domains shown, Mouse monoclonal from hybridoma, stated mouse IgG1/Kappa; also called 4H8F1-biotin; Antibody 1) VH: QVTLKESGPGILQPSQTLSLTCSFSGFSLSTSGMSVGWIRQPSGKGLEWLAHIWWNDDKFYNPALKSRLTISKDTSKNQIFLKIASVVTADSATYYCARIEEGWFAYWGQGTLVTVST VL: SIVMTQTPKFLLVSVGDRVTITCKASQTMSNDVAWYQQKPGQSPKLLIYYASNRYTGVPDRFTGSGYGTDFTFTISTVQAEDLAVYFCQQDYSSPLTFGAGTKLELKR"
  OD value / OD: 0.074
- Binder: "antibody 21B11D2 (antibody, mouse IgG2b, kappa, V domains shown, Mouse monoclonal from hybridoma, stated mouse IgG1/Kappa; Used unlabelled as capture and biotin-labelled as detection antibody; also called 21B11D2-biotin) VH: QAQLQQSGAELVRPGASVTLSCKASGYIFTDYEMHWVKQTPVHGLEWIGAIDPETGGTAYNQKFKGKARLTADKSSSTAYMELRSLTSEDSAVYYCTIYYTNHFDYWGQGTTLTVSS VL: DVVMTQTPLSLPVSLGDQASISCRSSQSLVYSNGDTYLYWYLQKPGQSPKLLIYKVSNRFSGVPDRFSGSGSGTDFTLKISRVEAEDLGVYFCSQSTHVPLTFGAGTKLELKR"
  OD value / OD: 0.072

Now look at this one.
Q. Item under review: antibody 12F12A10 (antibody, V domains shown, Mouse monoclonal from hybridoma, stated mouse IgG1/Kappa; also called 12F12A10-biotin; Antibody 2) VH: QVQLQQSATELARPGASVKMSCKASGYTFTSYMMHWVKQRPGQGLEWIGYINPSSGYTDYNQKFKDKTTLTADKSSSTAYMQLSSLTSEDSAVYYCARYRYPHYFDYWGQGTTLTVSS VL: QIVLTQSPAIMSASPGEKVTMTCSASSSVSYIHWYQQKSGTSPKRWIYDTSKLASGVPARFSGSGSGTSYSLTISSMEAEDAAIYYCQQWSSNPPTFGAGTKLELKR . Reported OD value?
A. 2.99
